- System: Plasmodium falciparum
- TEST: GSK_TCMDC: Inhibition of Plasmodium falciparum Dd2 in whole red blood cells, using parasite LDH activity as an index of growth. Test compounds present at 2uM
- Format: functional
MEASURED_ENDPOINT: Inhibition (%)
Quick note: give the figure in %, leave out the unit.

INSERT INTO assay_data (test_smiles, assay_result) VALUES
  ('Cc1cnc(C(=O)Nc2cccc(-c3csc(-c4nc5ccccc5[nH]4)c3)c2)cn1', 80),
  ('CC(C)(C)CCN1CCC(NC(=O)c2ccc(-c3cccc(C(F)(F)F)c3)s2)CC1.O=C(O)C(F)(F)F', 88),
  ('O=C(Nc1ccc(-c2ccccc2)s1)N[C@H]1CCN(Cc2ccc(OCCCN3CCCCC3)cc2)C1', 40);

Query: // lookup Inhibition for Cc1cccc2nc(-c3cccc(-c4ccc(NC(=O)c5ccoc5)cc4)c3)[nH]c12
Response: 56

Query: // lookup Inhibition for C[C@@H](NC(=O)c1nn(-c2ccc(Cl)cc2)c(=O)c2ccccc12)C(C)(C)C
Response: 20

----------
Readings of Inhibition for the listed molecules
- Test system: Plasmodium falciparum
- TEST: GSK_TCMDC: Inhibition of Plasmodium falciparum 3D7 in whole red blood cells, using parasite LDH activity as an index of growth. Test compounds present at 2uM
- Assay type: functional
Quick note: give the figure in %, leave out the unit.

INSERT INTO results (molecule, experimental_target, unit_of_measurement, assay_result) VALUES
  ('COc1ccc(-c2cccc(NC(=O)c3ccc(C#N)cc3)c2)cc1CN1CCCC1.O=C(O)C(F)(F)F', 'Plasmodium falciparum', '%', 98),
  ('CC(C)CCCC(C)(C)NC[C@@H](O)[C@H](Cc1ccccc1)NC(=O)c1cc(NC(C)C)cc(N2CCCCS2(=O)=O)c1.O=CO', 'Plasmodium falciparum', '%', 98),
  ('O=C(Nc1ccc(-c2nc3ccc(NC(=O)c4ccc(Br)cc4)cc3[nH]2)cc1)c1ccc(Br)cc1', 'Plasmodium falciparum', '%', 98),
  ('CCCN(CCC)c1nn2c(=O)c(C(=O)N3CCN(Cc4ccccc4)CC3)cnc2s1', 'Plasmodium falciparum', '%', 84),
  ('CCCc1cc(Cc2cnc(N)nc2N)cc2c1OC(C)C2C.Cl (stereo not drawn)', 'Plasmodium falciparum', '%', 98);

Query: // lookup Inhibition for Cn1c(N)c(C(=O)CSc2nnc(-c3cccs3)n2Cc2ccccc2)c(=O)n(C)c1=O
Response: 85

Query: // lookup Inhibition for CCN1CCC(N(Cc2ccc(-c3ccc(C(F)(F)F)cc3)cc2)C(=O)CCCCn2c(CCc3cccc(F)c3F)nc(=O)c3ccccc32)CC1
Response: 90

Query: // lookup Inhibition for Cc1cc2c(cc1C(F)(F)F)N(C(=O)Nc1cnc(OCCN(C)C)c(C(F)(F)F)c1)CC2
Response: 88

Query: // lookup Inhibition for CCc1nc(N)nc(N)c1-c1ccc(F)c(F)c1
Response: 98

Query: // lookup Inhibition for CCCCn1c(=N)c(C(=O)NCc2cccnc2)cc2c(=O)n3cccc(C)c3nc21
Response: 100

Query: // lookup Inhibition for CC(C)n1c(CC2CCN(CC3CCN(C(=O)/C=C/c4ccc(Cl)c(Cl)c4)CC3)CC2)nc2ccccc21
Response: 100

Query: // lookup Inhibition for CCOC(=O)c1ccc(NC(=O)Nc2ccc(-c3ccc(-c4nc5ccccc5[nH]4)cc3)cc2)cc1
Response: 100

Query: // lookup Inhibition for COc1cccc(-c2cnc(N)c(-c3nc4ccc(C(F)(F)F)cc4[nH]3)c2)c1.Cl
Response: 99

----------
- Tested on: Plasmodium falciparum
- TEST: GSK_TCMDC: Inhibition of Plasmodium falciparum Dd2 in whole red blood cells, using parasite LDH activity as an index of growth. Test compounds present at 2uM
- Format: functional
Kindly return MET if reported Inhibition is no lower than 40%; return NOT MET if it is lower.

INSERT INTO assay_data (compound, class) VALUES
  ('CCCCCCCN1CCC(CC(=O)Nc2ccnc3ccc(OC)cc23)CC1', 'MET');

Query: Reported Inhibition reaches at least 40% for Cc1cc(N[C@@H](CC(C)C)C(=O)NCc2cccc(F)c2)nc(NCCc2ccccc2)n1.O=C(O)C(F)(F)F ?
Response: NOT MET

Query: Reported Inhibition reaches at least 40% for COc1cc(COc2c(C)nc(N)nc2N)cc(OC)c1OC.Cl ?
Response: NOT MET

Query: Reported Inhibition reaches at least 40% for O=C(Nc1cccc(-c2ccc(-c3nc4ccccc4[nH]3)cc2)c1)Nc1ccc(F)c(F)c1F ?
Response: NOT MET

Query: Reported Inhibition reaches at least 40% for CC(C)(C)CCOC(=O)N1CCc2c(cc(O)c(O)c2Cl)C(c2ccc(O)cc2)C1 (stereo not given) ?
Response: MET

----------
Readings of Inhibition for the listed compounds
- System: HepG2
- TEST: GSK_TCMDC: Percent inhibition of human HepG2 cell line. Test compounds present at 10uM.
- Type: functional

Solved cases below.
INSERT INTO assay_data (compound, assay_result) VALUES
  ('CCCCCOc1ccc(C(O)C(CN2CCCCC2)c2ccccc2)cc1.Cl (centres undefined)', '11%'),
  ('O=C(O)C(F)(F)F.c1ccc(CNCc2cccc(-c3ccc(-c4nc5ccccc5[nH]4)s3)c2)cc1', '8%'),
  ('CCCCNc1c(CC)c(C)c(C#N)c2nc3ccccc3n12', '3%'),
  ('CCOC(=O)c1ccc(NC(=O)N[C@@H](Cc2ccccc2)C(=O)NC2CCN(Cc3ccc(O)cc3)C2)cc1 (some centres undefined)', '7%'),
  ('Cc1cccc2nc(-c3ccc(-c4cccc(CNCCCN5CCCC5=O)c4)s3)[nH]c12.O=C(O)C(F)(F)F', '14%');

Query: // lookup Inhibition for CCOCCCNc1ncc(-c2ccsc2)c(-c2nc(C)cs2)n1
Response: 0%

Query: // lookup Inhibition for COC(=O)c1noc(C)c1I
Response: 5%

Query: // lookup Inhibition for CC(=O)N1N=C(c2ccc(F)cc2)Sc2c1nc(C1CCCCC1)n2C(C)=O
Response: 4%

Query: // lookup Inhibition for CC(C)C[C@H](NC(=O)c1cc2ccccc2s1)C(=O)N[C@H]1CCN(Cc2ccc(OC[C@@H]3CCCN3C)c3ccccc23)C1.O=C(O)C(F)(F)F
Response: 69%

Query: // lookup Inhibition for CCCCCn1c(Sc2ccc(C#N)c([N+](=O)[O-])c2)nnc1-c1ccccc1
Response: 22%

Query: // lookup Inhibition for Cc1cccc2nc(-c3cccc(-c4cccc(NC(=O)Nc5ccc(F)c(F)c5F)c4)c3)[nH]c12
Response: 32%

Query: // lookup Inhibition for CCc1cn2c3c(cc(C(=O)N[C@@H](Cc4ccccc4)[C@H](O)CNC4CC4)cc13)N(CC)S(=O)(=O)CC2.O=CO
Response: 13%

Query: // lookup Inhibition for O=C(NC1CCCCN(Cc2ccccc2O)C1)c1ccc(Cl)c(Cl)c1.O=C(O)C(F)(F)F (centres undefined)
Response: 0%

Query: // lookup Inhibition for CCC(CC)n1cc2c(ccc3nc(N)nc(N)c32)n1
Response: 61%

----------
- System: Plasmodium falciparum
- TEST: GSK_TCMDC: Inhibition of Plasmodium falciparum Dd2 in whole red blood cells, using parasite LDH activity as an index of growth. Test compounds present at 2uM
- Assay type: functional
MEASURED_ENDPOINT: Inhibition (%)
Quick note: give the figure in %, leave out the unit.

Solved cases below.
INSERT INTO results (compound, experimental_target, measured_endpoint, assay_result) VALUES
  ('Cc1ccc(C(=O)N2CCN(Cc3nccs3)CC2)cc1', 'Plasmodium falciparum', 'Inhibition', 0),
  ('CCCNCc1ccc(-c2ccc(CN(CCOC)C(=O)c3ccc([N+](=O)[O-])c(C)c3)cc2)nc1.O=C(O)C(F)(F)F', 'Plasmodium falciparum', 'Inhibition', 23),
  ('Cc1cccc2nc(-c3ccc(-c4ccc(CN5CCC(N)C5)cc4)s3)[nH]c12.O=C(O)C(F)(F)F (stereo unspecified)', 'Plasmodium falciparum', 'Inhibition', 98),
  ('COCCN(C)CCCOc1cc2c(cc1OC)ncn2-c1cc(OCc2ccccc2C(F)(F)F)c(C(N)=O)s1.Cl', 'Plasmodium falciparum', 'Inhibition', 49),
  ('CC1CCCCC1N(C)C1CCN(CCCNC(=O)C=Cc2ccccc2Cl)CC1 (stereo unspecified)', 'Plasmodium falciparum', 'Inhibition', 14);

Query: // lookup Inhibition for COc1ccc(-c2cnc3ccc(NC4CCC(O)CC4)nn23)cn1 (stereo unspecified)
Response: 73

Query: // lookup Inhibition for Fc1ccc2[nH]c(-c3cccc(-c4cccc(CN5CCN(c6ccncc6)CC5)c4)c3)nc2c1.O=C(O)C(F)(F)F
Response: 99

----------
- Test system: Plasmodium falciparum
- TEST: GSK_TCMDC: Inhibition of Plasmodium falciparum 3D7 in whole red blood cells, using parasite LDH activity as an index of growth. Test compounds present at 2uM
- Format: functional
MEASURED_ENDPOINT: Inhibition (%)
Quick note: give the figure in %, leave out the unit.

Solved cases below.
INSERT INTO assay_data (molecule, assay_result) VALUES
  ('Cl.Clc1ccc(C2CCN(CCCOc3ccc4c(c3)CCNCC4)CC2)cc1', 98),
  ('COc1ccc(CCNc2nc(NCc3ccccc3)c3cc(OC)c(OC)cc3n2)cc1OC', 100),
  ('Cc1ccccc1Cc1cccc(/N=C(\N)Nc2ccc(Cl)cc2)n1', 91),
  ('O=C(/C=C/c1ccc(Cl)c(Cl)c1)N1CCC(CN2CCC(c3c[nH]c4ccncc34)CC2)CC1', 100),
  ('Cc1cc(=NN=Cc2ccccc2F)c2cc(F)ccc2[nH]1', 100);

Query: // lookup Inhibition for COc1cc2nc(NCCc3ccccc3)nc(NCc3nccs3)c2cc1OC
Response: 99

Query: // lookup Inhibition for Cc1ccc2nc(C)n(C3CCN(C(=O)C4(c5ccccc5)CC4)CC3)c2c1
Response: 100
